- system under test: T1, HLA-DR4 (DRB1*0401) (human)
- T1 chain 1: not shown
- T1 chain 2: not shown
- test details: competition ELISA, purified HLA II; tracer biotinylated HA 306-318
assay metric: pIC50
Keep it numeric: pIC50 is minus log10 of the concentration in mol/L.

Guide cases for pIC50, answers given:
[
  {
    "binder": "GCIITSLTGRDKNQV (modifications not checked) [9N 1041-1055]",
    "pIC50": 5.54
  },
  {
    "binder": "DAHFLSQTKQSGENL (modifications not checked) [29N 1569-1583]",
    "pIC50": 4.98
  }
]

Turning now to a further record.
## Task pIC50 lookup needed for TRGLLGCIITSLTGRDKNQV (modifications not checked) [9N 1036-1055, P26664 1036-1055] , thanks.
## Result 6.02
